# TARGET: Glutamate receptor 4 (Rattus norvegicus, UniProt P19493)
# Sequence (P19493 whole entry): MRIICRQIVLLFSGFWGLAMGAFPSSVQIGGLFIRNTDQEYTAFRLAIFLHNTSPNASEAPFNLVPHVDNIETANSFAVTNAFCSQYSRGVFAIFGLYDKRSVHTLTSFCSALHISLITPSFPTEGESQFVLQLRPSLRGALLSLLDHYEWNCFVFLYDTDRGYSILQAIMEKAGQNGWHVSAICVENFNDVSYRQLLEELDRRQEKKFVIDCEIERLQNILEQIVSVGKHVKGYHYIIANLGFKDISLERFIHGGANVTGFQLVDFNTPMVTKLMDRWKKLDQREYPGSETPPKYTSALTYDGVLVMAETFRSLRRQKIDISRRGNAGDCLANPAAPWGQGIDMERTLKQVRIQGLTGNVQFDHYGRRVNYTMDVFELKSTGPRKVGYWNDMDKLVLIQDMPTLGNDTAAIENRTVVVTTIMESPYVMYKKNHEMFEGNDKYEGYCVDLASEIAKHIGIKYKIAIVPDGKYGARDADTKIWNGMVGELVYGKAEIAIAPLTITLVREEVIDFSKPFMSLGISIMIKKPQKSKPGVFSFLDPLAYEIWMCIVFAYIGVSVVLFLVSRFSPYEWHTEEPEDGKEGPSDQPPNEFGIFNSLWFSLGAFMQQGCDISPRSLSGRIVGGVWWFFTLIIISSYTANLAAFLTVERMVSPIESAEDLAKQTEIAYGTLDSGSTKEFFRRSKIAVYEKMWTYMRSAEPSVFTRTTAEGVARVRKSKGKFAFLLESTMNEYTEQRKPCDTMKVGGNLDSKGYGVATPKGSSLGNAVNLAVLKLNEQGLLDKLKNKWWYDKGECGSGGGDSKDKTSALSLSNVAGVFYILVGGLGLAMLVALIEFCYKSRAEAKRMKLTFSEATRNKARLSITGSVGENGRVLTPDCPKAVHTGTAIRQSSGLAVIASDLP
# PROTOCOL DETAILS: Displacement of [3H]-AMPA from AMPA in rat cortical synaptosomes incubated for 30 mins by TopCount microplate scintillation counting method
# Format: subcellular, Cortex, Synaptosome

| SMILES STRING | TARGET | MEASUREMENT QUALIFIER | IC50 (µM) |
| --- | --- | --- | --- |
| O=C(O)C[C@@H]1[C@@H](C(=O)O)NC[C@@H]1n1ccnn1 | Glutamate receptor 4 (Rattus norvegicus, UniProt P19493) | = | 9.5 |
| O=C(O)CCc1cn([C@H]2CN[C@H](C(=O)O)[C@H]2CC(=O)O)nn1 | Glutamate receptor 4 (Rattus norvegicus, UniProt P19493) | > | 100 |

###

# TARGET: Glutamate NMDA receptor (Rattus norvegicus) (UniProt P35439+Q00959+Q00960+Q00961+Q62645+Q8VHN2+Q9R1M7)
# PROTOCOL DETAILS: Displacement of [3H]CGP39653 from NMDA receptor in rat cortical synaptosomes assessed as remaining activity at 10 uM incubated for 60 mins by Topcount microplate scintillation counting method relative to control
# Type: subcellular
# CONDITION CONTEXT: Cortex, Synaptosome

| COMPOUND | Activity / % |
| --- | --- |
| CC(CCc1cnnn1[C@H]1CN[C@H](C(=O)O)[C@H]1CC(=O)O)C(=O)O (some centres undefined) | 102 |
| O=C(O)C[C@@H]1[C@@H](C(=O)O)NC[C@@H]1n1nncc1CCc1ccccc1 | 98 |
| NCc1cnnn1[C@H]1CN[C@H](C(=O)O)[C@H]1CC(=O)O | 92 |
| O=C(O)C[C@@H]1[C@@H](C(=O)O)NC[C@@H]1n1nncc1CO | 102 |
| O=C(O)C[C@@H]1[C@@H](C(=O)O)NC[C@@H]1n1nncc1C(=O)O | 66 |
| O=C(O)CCCc1cnnn1[C@H]1CN[C@H](C(=O)O)[C@H]1CC(=O)O | 90 |
| O=C(O)C[C@@H]1[C@@H](C(=O)O)NC[C@@H]1n1nncc1-c1ccc2cc(O)ccc2c1 | 99 |
| O=C(O)C[C@@H]1[C@@H](C(=O)O)NC[C@@H]1n1nncc1-c1ccccc1 | 101 |
| O=C(O)C[C@@H]1[C@@H](C(=O)O)NC[C@@H]1n1nncc1Cc1ccccc1 | 87 |

###

# TARGET: Glutamate receptor ionotropic, kainate 5 (Mus musculus) (UniProt Q61626)
# PROTOCOL DETAILS: Displacement of [3H]-kainate from mouse GluK5 expressed in Sf9 cell membrane assessed as remaining activity at 10 uM incubated for 2 hrs by scintillation counting method relative to control
# Assay type: cell membranes
Please use condition met whenever Activity is not below 80%, and condition not met whenever it is.

| SMILES STRING | ASSIGNED LABEL |
| --- | --- |
| CCc1ccc(-c2cnnn2[C@H]2CN[C@H](C(=O)O)[C@H]2CC(=O)O)cc1 | condition not met |
| O=C(O)C[C@@H]1[C@@H](C(=O)O)NC[C@@H]1n1nncc1-c1cccnc1 | condition not met |
| O=C(O)C[C@@H]1[C@@H](C(=O)O)NC[C@@H]1n1nncc1CN1CCS(=O)(=O)CC1 | condition met |
| NCc1cnnn1[C@H]1CN[C@H](C(=O)O)[C@H]1CC(=O)O | condition met |
| O=C(O)C[C@@H]1[C@@H](C(=O)O)NC[C@@H]1n1nncc1-c1ccc(C(F)(F)F)cc1 | condition not met |
| O=C(O)C[C@@H]1[C@@H](C(=O)O)NC[C@@H]1n1nncc1C(=O)O | condition met |

###

# PROTOCOL DETAILS: Displacement of [3H]-KA from KA in rat cortical synaptosomes incubated for 60 mins by TopCount microplate scintillation counting method
# Type: subcellular, Cortex, Synaptosome
Measured IC50 values are reported for all entries that follow.

| COMPOUND | MEASUREMENT QUALIFIER | IC50 [µM] |
| --- | --- | --- |
| CC(CCc1cnnn1[C@H]1CN[C@H](C(=O)O)[C@H]1CC(=O)O)C(=O)O (some centres undefined) | = | 1.73 |
| O=C(O)CCCc1cnnn1[C@H]1CN[C@H](C(=O)O)[C@H]1CC(=O)O | = | 2.3 |
| O=C(O)C[C@@H]1[C@@H](C(=O)O)NC[C@@H]1n1nncc1-c1cccc(C(F)(F)F)c1 | = | 5.1 |
| O=C(O)CCc1cn([C@H]2CN[C@H](C(=O)O)[C@H]2CC(=O)O)nn1 | > | 100 |
| O=C(O)C[C@@H]1[C@@H](C(=O)O)NC[C@@H]1n1nncc1-c1ccc2cc(O)ccc2c1 | = | 4.4 |
| O=C(O)C[C@@H]1[C@@H](C(=O)O)NC[C@@H]1n1nncc1CO | = | 22 |
| O=C(O)C[C@@H]1[C@@H](C(=O)O)NC[C@@H]1n1nncc1CCc1ccccc1 | = | 35 |
| O=C(O)C[C@@H]1[C@@H](C(=O)O)NC[C@@H]1n1nncc1-c1ccccc1 | = | 5.1 |
| O=C(O)C[C@@H]1[C@@H](C(=O)O)NC[C@@H]1n1ccnn1 | = | 1.3 |

###

# TARGET: Glutamate receptor ionotropic, kainate 5 (Mus musculus, UniProt Q61626)
# Sequence (Q61626 whole entry): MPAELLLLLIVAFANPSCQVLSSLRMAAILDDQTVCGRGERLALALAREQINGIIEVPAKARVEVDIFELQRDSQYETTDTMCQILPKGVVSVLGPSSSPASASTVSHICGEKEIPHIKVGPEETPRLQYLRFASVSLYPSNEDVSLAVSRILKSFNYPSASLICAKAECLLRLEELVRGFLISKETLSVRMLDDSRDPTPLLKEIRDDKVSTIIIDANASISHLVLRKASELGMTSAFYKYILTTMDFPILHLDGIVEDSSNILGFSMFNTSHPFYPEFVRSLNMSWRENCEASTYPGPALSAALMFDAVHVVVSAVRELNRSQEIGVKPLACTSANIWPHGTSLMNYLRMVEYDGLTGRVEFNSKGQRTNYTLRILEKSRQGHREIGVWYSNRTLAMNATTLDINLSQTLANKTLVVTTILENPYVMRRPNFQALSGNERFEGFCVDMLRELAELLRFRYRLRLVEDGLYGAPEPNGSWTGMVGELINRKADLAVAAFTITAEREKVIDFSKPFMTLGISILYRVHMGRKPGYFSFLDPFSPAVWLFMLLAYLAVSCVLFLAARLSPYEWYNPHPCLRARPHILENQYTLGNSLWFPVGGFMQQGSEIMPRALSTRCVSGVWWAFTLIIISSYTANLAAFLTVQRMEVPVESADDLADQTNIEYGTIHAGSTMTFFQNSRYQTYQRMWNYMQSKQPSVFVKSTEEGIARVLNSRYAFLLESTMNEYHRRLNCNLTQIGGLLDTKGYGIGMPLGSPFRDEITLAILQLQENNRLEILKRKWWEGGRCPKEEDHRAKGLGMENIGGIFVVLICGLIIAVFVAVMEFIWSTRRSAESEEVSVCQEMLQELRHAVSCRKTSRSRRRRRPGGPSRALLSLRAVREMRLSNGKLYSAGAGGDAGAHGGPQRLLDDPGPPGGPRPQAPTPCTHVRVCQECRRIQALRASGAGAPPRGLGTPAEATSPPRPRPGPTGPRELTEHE
Measured Ki values are reported for all entries that follow.

| COMPOUND | UNIT STRING | Ki |
| --- | --- | --- |
| O=C(O)C[C@@H]1[C@@H](C(=O)O)NC[C@@H]1n1nncc1-c1ccccc1 | nM | 499 |
| O=C(O)CCCc1cnnn1[C@H]1CN[C@H](C(=O)O)[C@H]1CC(=O)O | nM | 483 |
| Nc1cccc(-c2cn([C@H]3CN[C@H](C(=O)O)[C@H]3CC(=O)O)nn2)c1 | nM | 3250 |
| CC(CCc1cnnn1[C@H]1CN[C@H](C(=O)O)[C@H]1CC(=O)O)C(=O)O (some centres undefined) | nM | 420 |

###

# TARGET: Glutamate receptor ionotropic, kainate 2 (Homo sapiens)
# Sequence (Q13002 whole entry): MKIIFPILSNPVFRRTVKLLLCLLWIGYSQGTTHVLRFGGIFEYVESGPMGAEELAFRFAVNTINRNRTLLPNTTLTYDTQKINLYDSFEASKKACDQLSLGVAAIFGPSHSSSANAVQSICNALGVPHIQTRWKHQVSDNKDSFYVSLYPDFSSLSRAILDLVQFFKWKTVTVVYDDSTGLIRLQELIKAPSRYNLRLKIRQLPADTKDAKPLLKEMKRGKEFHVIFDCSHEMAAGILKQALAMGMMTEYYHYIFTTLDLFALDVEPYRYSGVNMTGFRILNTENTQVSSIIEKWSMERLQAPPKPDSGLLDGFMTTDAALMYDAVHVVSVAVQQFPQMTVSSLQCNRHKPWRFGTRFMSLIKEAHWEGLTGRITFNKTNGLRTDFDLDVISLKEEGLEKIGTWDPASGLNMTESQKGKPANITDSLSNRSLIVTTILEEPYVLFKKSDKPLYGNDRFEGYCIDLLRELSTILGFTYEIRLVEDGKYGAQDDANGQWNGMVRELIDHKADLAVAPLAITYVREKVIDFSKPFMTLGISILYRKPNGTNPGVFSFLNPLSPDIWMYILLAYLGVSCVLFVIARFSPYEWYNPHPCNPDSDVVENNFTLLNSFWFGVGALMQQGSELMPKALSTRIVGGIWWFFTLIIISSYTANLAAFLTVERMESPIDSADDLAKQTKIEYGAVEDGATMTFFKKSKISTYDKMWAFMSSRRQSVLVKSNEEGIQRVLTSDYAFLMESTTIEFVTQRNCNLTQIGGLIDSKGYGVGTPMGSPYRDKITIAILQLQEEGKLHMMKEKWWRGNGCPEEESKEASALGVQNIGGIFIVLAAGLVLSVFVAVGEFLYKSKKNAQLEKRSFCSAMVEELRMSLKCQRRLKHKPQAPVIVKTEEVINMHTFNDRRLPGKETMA
# PROTOCOL DETAILS: Displacement of [3H]-kainic acid from GluR6 (unknown origin) expressed in Sf9 cells membrane
# Format: cell membranes, Cell membrane
pKi: −log10 of the molar value.

| SMILES STRING | pKi |
| --- | --- |
| C/C(=C/C/C=C(\C)C(=O)O)[C@H]1CN[C@H](C(=O)O)[C@H]1CC(=O)O | 6.89 |

###

# TARGET: Glutamate receptor ionotropic, kainate 1 (Rattus norvegicus) (UniProt P22756)
# Sequence (P22756 whole entry): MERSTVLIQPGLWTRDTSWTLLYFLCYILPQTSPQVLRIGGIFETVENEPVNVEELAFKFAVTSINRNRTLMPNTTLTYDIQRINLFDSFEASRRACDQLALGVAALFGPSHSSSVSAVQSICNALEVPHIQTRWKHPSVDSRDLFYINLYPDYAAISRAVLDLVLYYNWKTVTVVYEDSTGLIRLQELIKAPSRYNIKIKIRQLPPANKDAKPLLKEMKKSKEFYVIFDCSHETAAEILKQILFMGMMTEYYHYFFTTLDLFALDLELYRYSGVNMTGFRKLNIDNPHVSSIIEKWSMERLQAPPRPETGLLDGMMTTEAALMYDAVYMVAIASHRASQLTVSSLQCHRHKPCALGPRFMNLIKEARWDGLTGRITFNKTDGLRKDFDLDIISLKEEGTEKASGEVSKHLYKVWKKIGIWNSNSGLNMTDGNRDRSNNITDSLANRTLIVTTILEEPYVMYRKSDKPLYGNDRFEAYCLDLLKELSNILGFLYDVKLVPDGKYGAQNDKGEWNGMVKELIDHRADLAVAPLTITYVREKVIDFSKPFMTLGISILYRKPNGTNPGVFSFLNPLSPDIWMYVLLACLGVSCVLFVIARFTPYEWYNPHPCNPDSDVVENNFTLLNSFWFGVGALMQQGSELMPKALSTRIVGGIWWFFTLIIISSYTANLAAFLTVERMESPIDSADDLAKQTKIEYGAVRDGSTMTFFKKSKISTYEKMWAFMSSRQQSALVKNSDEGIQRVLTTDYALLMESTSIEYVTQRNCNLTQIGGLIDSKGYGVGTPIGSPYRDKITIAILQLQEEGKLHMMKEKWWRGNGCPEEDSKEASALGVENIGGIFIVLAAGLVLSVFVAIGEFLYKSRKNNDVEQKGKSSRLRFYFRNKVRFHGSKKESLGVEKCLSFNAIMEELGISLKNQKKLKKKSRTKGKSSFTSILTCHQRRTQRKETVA
# PROTOCOL DETAILS: Displacement of [3H]-NF608 from rat GluK1 assessed as percent of radioligand binding at 10 uM relative to control
MEASUREMENT TYPE: Activity (%)

| SMILES STRING | QUANTITATIVE RESULT |
| --- | --- |
| O=C(O)C[C@@H]1[C@@H](C(=O)O)NC[C@@H]1n1nncc1-c1ccc2cc(O)ccc2c1 | 90 |
| O=C(O)C[C@@H]1[C@@H](C(=O)O)NC[C@@H]1n1nncc1C(=O)O | 79 |
| Nc1cccc(-c2cn([C@H]3CN[C@H](C(=O)O)[C@H]3CC(=O)O)nn2)c1 | 97 |
| O=C(O)C[C@@H]1[C@@H](C(=O)O)NC[C@@H]1n1nncc1-c1ccc(F)cc1F | 96 |
| O=C(O)C[C@@H]1[C@@H](C(=O)O)NC[C@@H]1n1nncc1-c1ccccc1 | 93 |
| O=C(O)C[C@@H]1[C@@H](C(=O)O)NC[C@@H]1n1nncc1CCc1ccccc1 | 94 |
| NCc1cnnn1[C@H]1CN[C@H](C(=O)O)[C@H]1CC(=O)O | 95 |
